- Protocol Summary: Chromogenic reaction of degrading herbicides in bacteria: 2,4-D
- Assay type: cell-based, Escherichia coli
- Assay Context: recombinant E. coli expressing the gene, 2,4-D added to the medium; red = phenols
Metric: Chromogenic reaction of degrading herbicides in bacteria: 2,4-D

molecule="QYD43: AAD-like enzyme, SEQ ID NO. 85 (protein, Synthetic polypeptide, QYD43, D43) MRRLHIAPTGATLGATVTGVSLAALDEPTWQAIYRAWLEHALLIFPGQHLSNQQQIGFARRFGAIERIGGGEIVAISNVKADGRVRAHTPAEWDDMMKVIVGNMAWHADSTYMPVMAKGAVFSGELVPTERGETSFADMRAAYDALDQATRALVHQRSAHHSLVYSQSKLGHVPGAQSAYLGYGMDQTTAPLRPLVKVHPETGRQSLLIGRHAHAIPGMDPAESEVFLEGLVEWACQPPRIHTHHWTAGDVVLWDNRCLLHRAMPWDLAQPRVMWHSRLAGDPVAEAALPPVAPAAATH" endpoint_result=Yes
molecule="QYD76: AAD-like enzyme, SEQ ID NO. 151 (protein, Synthetic polypeptide, QYD76, D76) MARMFDIAPLDATFGAVVTGVKVTRIDDATWRDLHAAWLEYALLIFPGQFLSRAEQIAFAKRFGPLEFEMAPISNVKADGTIRIEADNDDVVKVLKGNMGWHADSTYMPVQAKGAVFSAEVVPGEGGRTGWADMRAAYDALDAARRVRVESLTAYHSLYYSQAKLGHQPKRGSDYSGYGFHDGPVPRRPLVKVHPETGRKSLLIGRHAHNIPGMDVAESTQFLESLVDFACQPPRIYHHQWTAGDAVVWDNRCLLHRATPWDMTKPRVMWHSRIAGDPVSEASLG" endpoint_result=Yes
